Tested on: rats subjected to adrenalectomy (granuloma around implanted cotton wads)
Experiment: granulom test (cotton-pellet test) on rats subjected to adrenalectomy: granuloma growth, thymus weight, body weight increase
Type: in vivo, rat (Sprague-Dawley)
Conditions: rat, in vivo, 11520 min
So I've got a bunch of compounds here, and I need their Dose required to obtain 50% inhibition of Thymus weight values.

The examples below pair each entry with its known result.
{"compound": "CCCC1O[C@@H]2C[C@H]3[C@@H]4CCC5=CC(=O)C=C[C@]5(C)[C@H]4[C@@H](O)C[C@]3(C)[C@]2(C(=O)CO)O1 (single isomer, unassigned) [12 A]", "targetDesc": "rats subjected to adrenalectomy (granuloma around implanted cotton wads)", "readoutValue": "125 γ/animal"}
{"compound": "CCCC1O[C@@H]2C[C@H]3[C@@H]4CCC5=CC(=O)C=C[C@]5(C)[C@@]4(F)[C@@H](O)C[C@]3(C)[C@]2(C(=O)COC(=O)c2cccnc2)O1 (single isomer, unassigned) [21 B]", "targetDesc": "rats subjected to adrenalectomy (granuloma around implanted cotton wads)", "readoutValue": "10 γ/animal"}

Moving on to the next compound.
Inquiry: For CCCC1OC2CC3C4CCC5=CC(=O)C=CC5(C)C4C(O)CC3(C)C2(C(=O)COC(C)=O)O1 (mixture of isomers) [27 A+B] , what is its reported Dose required to obtain 50% inhibition of Thymus weight?
Reply text: 60 γ/animal

====

System: rats subjected to adrenalectomy (granuloma around implanted cotton wads)
Assay: granulom test (cotton-pellet test) on rats subjected to adrenalectomy: granuloma growth, thymus weight, body weight increase
Type: in vivo, rat (Sprague-Dawley)
Conditions: Table 3; adrenalectomized young male Sprague-Dawley rats, topical in implanted cotton wads, day 8
So I've got a bunch of molecules here, and I need their Dose required to obtain 50% inhibition of Granuloma growth values.

{"molecule": "CCCC1O[C@@H]2C[C@H]3[C@@H]4C[C@H](F)C5=CC(=O)C=C[C@]5(C)[C@@]4(F)[C@@H](O)C[C@]3(C)[C@]2(C(=O)COC(=O)c2cc3ccccc3o2)O1 (single isomer, unassigned) [25 B]", "readoutValue": "< 3 γ/animal"}
{"molecule": "CC1(C)O[C@@H]2C[C@H]3[C@@H]4C[C@H](F)C5=CC(=O)C=C[C@]5(C)[C@@]4(F)[C@@H](O)C[C@]3(C)[C@]2(C(=O)CO)O1 [Fluocinolone acetonide, reference compound]", "readoutValue": "~50 γ/animal"}
{"molecule": "CCCCC1O[C@@H]2C[C@H]3[C@@H]4CCC5=CC(=O)C=C[C@]5(C)[C@@]4(F)[C@@H](O)C[C@]3(C)[C@]2(C(=O)CO)O1 (single isomer, unassigned) [4 B]", "readoutValue": "< 3 γ/animal"}
{"molecule": "CCCC1O[C@@H]2C[C@H]3[C@@H]4CCC5=CC(=O)C=C[C@]5(C)[C@H]4[C@@H](O)C[C@]3(C)[C@]2(C(=O)CO)O1 (single isomer, unassigned) [12 B]", "readoutValue": "40 γ/animal"}

Inquiry: For CCCCC(=O)OCC(=O)[C@@]12OC(CCC)O[C@@H]1C[C@H]1[C@@H]3CCC4=CC(=O)C=C[C@]4(C)[C@@]3(F)[C@@H](O)C[C@@]12C (single isomer, unassigned) [22 B] , what is its reported Dose required to obtain 50% inhibition of Granuloma growth?
Reply text: < 3 γ/animal

Hello, the source for this data is patent US3996359A, in case you need it.
